Molecular target: IDH1 R132H (Homo sapiens, UniProt O75874, R132H)
Sequence (O75874 whole entry R132H): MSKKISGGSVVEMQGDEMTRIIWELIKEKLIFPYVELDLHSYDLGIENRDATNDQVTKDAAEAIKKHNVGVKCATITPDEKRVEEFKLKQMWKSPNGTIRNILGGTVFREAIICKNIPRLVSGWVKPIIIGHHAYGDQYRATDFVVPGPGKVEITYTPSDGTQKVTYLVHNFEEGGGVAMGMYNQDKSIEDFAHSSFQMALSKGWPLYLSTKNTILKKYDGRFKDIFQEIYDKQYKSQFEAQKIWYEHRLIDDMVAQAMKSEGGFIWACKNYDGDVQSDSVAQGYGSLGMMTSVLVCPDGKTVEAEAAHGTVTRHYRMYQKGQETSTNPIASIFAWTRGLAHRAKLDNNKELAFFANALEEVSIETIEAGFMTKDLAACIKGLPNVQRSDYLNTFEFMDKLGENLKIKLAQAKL
Assay: IDH1 R132H enzymatic assay (NADPH depletion coupled to diaphorase/resazurin)
Type: biochemical
Conditions: IDH1 R132H enzymatic inhibition, IC50 class

{"columns": ["structureSmiles", "IC50"],
 "data": [
  ["CCc1cccc(CC)c1-n1c(CC(C)C)c(C(=O)N2CCNCC2)cc(-c2nc(-c3ccc(Cl)cc3)c(C3CC3)s2)c1=O", "0.3 to 1 µM"],
  ["CCc1cccc(CC)c1-n1c2c(cc(-c3nc(-c4ccc(C(F)(F)F)cc4)cs3)c1=O)C(=O)CC(C)(C)C2", "0.3 to 1 µM"],
  ["COc1cccc(C)c1-n1c2c(cc(-c3nc(-c4ccc(Cl)cc4)cs3)c1=O)C(=O)CCC2", "1 to 5 µM"],
  ["CC1(C)CC(=O)c2cc(-c3nc(-c4ccc(Cl)cc4)cs3)c(=O)n(-c3ccccc3CO)c2C1", "5 to 20 µM"],
  ["CCc1cccc(CC)c1-n1c(C)c(C(=O)O)cc(-c2nc(-c3ccc(Cl)cc3)cs2)c1=O", "5 to 20 µM"],
  ["CC1(C)CC(=O)c2cc(-c3nc(-c4ccc(Cl)cc4)cs3)c(=O)n(-c3sccc3C(N)=O)c2C1", "5 to 20 µM"],
  ["CCc1cccc(CC)c1-n1c(C=C(C)C)c(C(=O)N2CCN[C@@H](C(=O)O)C2)cc(-c2nc(-c3ccc(C(F)(F)F)cc3)cs2)c1=O", "< 0.3 µM"]
]}

----------
Biological target: IDH1 R132C (Homo sapiens, UniProt O75874, R132C)
Sequence (O75874 whole entry R132C): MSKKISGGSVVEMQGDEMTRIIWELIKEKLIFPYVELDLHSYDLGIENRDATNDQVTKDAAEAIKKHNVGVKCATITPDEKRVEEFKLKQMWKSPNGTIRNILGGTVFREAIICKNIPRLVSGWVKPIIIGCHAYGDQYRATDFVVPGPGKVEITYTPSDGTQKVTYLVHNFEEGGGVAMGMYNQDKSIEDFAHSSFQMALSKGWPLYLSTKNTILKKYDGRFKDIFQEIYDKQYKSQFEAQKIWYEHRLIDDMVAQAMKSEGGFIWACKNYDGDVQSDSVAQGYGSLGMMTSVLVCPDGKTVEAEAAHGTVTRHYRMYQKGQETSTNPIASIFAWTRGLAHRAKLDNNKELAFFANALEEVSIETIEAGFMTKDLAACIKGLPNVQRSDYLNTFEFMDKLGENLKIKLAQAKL
Test: IDH1 R132C enzymatic assay (NADPH depletion coupled to diaphorase/resazurin)
Assay type: biochemical
Settings: IDH1 R132C enzymatic inhibition, IC50 class
Here the recorded IC50 is given for each entry.
measurementKind: IC50

{"columns": ["compound", "assaySystem", "observed"],
 "data": [
  ["CSc1ccccc1-n1c2c(cc(-c3nc(-c4ccc(Cl)cc4)cs3)c1=O)C(=O)CC(C)(C)C2", "IDH1 R132C (Homo sapiens, UniProt O75874, R132C)", "300 to 1000 nM"],
  ["CCc1cccc(CC)c1-n1c(CC)c(C(=O)O)cc(-c2nc(-c3ccc(Cl)cc3)cs2)c1=O", "IDH1 R132C (Homo sapiens, UniProt O75874, R132C)", "5000 to 20000 nM"],
  ["CCc1cccc(CC)c1-n1c(C)c(C(=O)NCCO)cc(-c2nc(-c3ccc(Cl)cc3)cs2)c1=O", "IDH1 R132C (Homo sapiens, UniProt O75874, R132C)", "1000 to 5000 nM"],
  ["CCc1cccc(CC)c1-n1c(C)c(C(=O)Nc2ccccc2)cc(-c2nc(-c3ccc(Cl)cc3)cs2)c1=O", "IDH1 R132C (Homo sapiens, UniProt O75874, R132C)", "> 20000 nM"],
  ["CCOc1ccc(OCC)c(-n2c3c(cc(-c4nc(-c5ccc(Cl)cc5)cs4)c2=O)C(=O)CC(C)(C)C3)c1", "IDH1 R132C (Homo sapiens, UniProt O75874, R132C)", "< 300 nM"],
  ["CCc1cccc(CC)c1-n1c(C)c(C(=O)NCCCNC)cc(-c2nc(-c3ccc(Cl)cc3)cs2)c1=O", "IDH1 R132C (Homo sapiens, UniProt O75874, R132C)", "300 to 1000 nM"],
  ["CCc1cccc(CC)c1-n1c(CC(C)C)c(C(=O)N2CC(O)C2)cc(-c2nc(-c3ccc(Cl)cc3)cs2)c1=O", "IDH1 R132C (Homo sapiens, UniProt O75874, R132C)", "300 to 1000 nM"],
  ["CCc1cccc(CC)c1-n1c(CC(C)C)c(C(=O)N[C@H](CO)c2ccccc2)cc(-c2nc(-c3ccc(Cl)cc3)cs2)c1=O", "IDH1 R132C (Homo sapiens, UniProt O75874, R132C)", "< 300 nM"],
  ["CC1(C)CC(=O)c2cc(-c3nc(-c4ccc(Cl)cc4)cs3)c(=O)n(-c3ccccc3-c3ccccc3)c2C1", "IDH1 R132C (Homo sapiens, UniProt O75874, R132C)", "300 to 1000 nM"],
  ["COc1ccc(OC)c(-n2c3c(cc(-c4nc(-c5ccccc5)cs4)c2=O)C(=O)CC(C)(C)C3)c1", "IDH1 R132C (Homo sapiens, UniProt O75874, R132C)", "1000 to 5000 nM"],
  ["CCCC1CNCCN1C(=O)c1cc(-c2nc(-c3ccc(Cl)cc3)cs2)c(=O)n(-c2c(CC)cccc2CC)c1C=C(C)C (centres unmarked)", "IDH1 R132C (Homo sapiens, UniProt O75874, R132C)", "< 300 nM"],
  ["CC1(C)CC(=O)c2cc(-c3nc(-c4ccncc4)cs3)c(=O)n(-c3ccccc3C(F)(F)F)c2C1", "IDH1 R132C (Homo sapiens, UniProt O75874, R132C)", "1000 to 5000 nM"],
  ["CCc1cccc(CC)c1-n1c(C)c(C(=O)NCC(C)(C)C)cc(-c2nc(-c3ccc(Cl)cc3)cs2)c1=O", "IDH1 R132C (Homo sapiens, UniProt O75874, R132C)", "1000 to 5000 nM"],
  ["CCc1cccc(CC)c1-n1c(-c2ccn(-c3ccccc3)n2)c(C(=O)N2CCNCC2)cc(-c2nc(-c3ccc(Cl)cc3)cs2)c1=O", "IDH1 R132C (Homo sapiens, UniProt O75874, R132C)", "1000 to 5000 nM"]
]}

----------
Molecular target: IDH1 R132H (Homo sapiens, UniProt O75874, R132H)
Test: IDH1 R132H enzymatic assay (NADPH depletion coupled to diaphorase/resazurin)
Format: biochemical
Conditions: enzymatic inhibition, IDH1 R132H
Here the recorded IC50 is given for each entry.

{"columns": ["compound", "IC50"],
 "data": [
  ["CCc1cccc(CC)c1-n1c(C=C(C)C)c(C(=O)N2CCNC(=O)CC2)cc(-c2nc(-c3ccc(Cl)cc3)cs2)c1=O [Compound 537]", "< 300 nM"],
  ["CCc1cccc(CC)c1-n1c(C2CC2)c(C(=O)N2CCNCC2)cc(-c2nc(-c3ccc(Cl)cc3)cs2)c1=O [Compound 502]", "< 300 nM"],
  ["CCc1cccc(CC)c1-n1c(C=C(C)C)c(C(=O)N2CCNC3(CC3)C2)cc(-c2nc(-c3ccc(Cl)cc3)cs2)c1=O [Compound 431]", "< 300 nM"]
]}

----------
Target: IDH1 R132C (Homo sapiens, UniProt O75874, R132C)
Experiment: IDH1 R132C enzymatic assay (NADPH depletion coupled to diaphorase/resazurin)
Assay type: biochemical
Conditions: enzymatic inhibition, IDH1 R132C
pIC50: −log10 of the molar value.
Here the recorded pIC50 is given for each entry.

{"columns": ["compound", "assaySystem", "pIC50"],
 "data": [
  ["CCc1cccc(CC)c1-n1c(CC(C)C)c(C(=O)N2CCNCC2)cc(-n2ccc(-c3ccc(Cl)cc3)n2)c1=O", "IDH1 R132C (Homo sapiens, UniProt O75874, R132C)", "> 6.52"],
  ["CCc1cccc(CC)c1-n1c(C=C(C)C)c(C(=O)N2CCNCC2)cc(-c2nc(-c3ccc(C(F)(F)F)nc3)cs2)c1=O", "IDH1 R132C (Homo sapiens, UniProt O75874, R132C)", "> 6.52"],
  ["CCc1cccc(CC)c1-n1c(CC2CCCCO2)c(C(=O)N2CCNCC2)cc(-c2nc(-c3ccc(Cl)cc3)cs2)c1=O (stereo not drawn)", "IDH1 R132C (Homo sapiens, UniProt O75874, R132C)", "6.00 to 6.52"],
  ["COc1cccc(-n2c3c(cc(-c4nc(-c5ccc(Cl)cc5)cs4)c2=O)C(=O)CC(C)(C)C3)c1OC", "IDH1 R132C (Homo sapiens, UniProt O75874, R132C)", "5.30 to 6.00"],
  ["CN1CCN(Cc2ccccc2-n2c3c(cc(-c4nc(-c5ccc(Cl)cc5)cs4)c2=O)C(=O)CCC3)CC1", "IDH1 R132C (Homo sapiens, UniProt O75874, R132C)", "4.70 to 5.30"],
  ["CCc1cccc(CC)c1-n1c(CC(C)C)c(C(=O)N2CCNCC2)cc(-c2nc(-c3ccc(Cl)cc3C)c(C)s2)c1=O", "IDH1 R132C (Homo sapiens, UniProt O75874, R132C)", "5.30 to 6.00"],
  ["CCc1cccc(CC)c1-n1c(C=C(C)C)c(C(=O)N2CCNC[C@@H]2C)cc(-c2nc(-c3ccc(C(F)(F)F)cc3)cs2)c1=O", "IDH1 R132C (Homo sapiens, UniProt O75874, R132C)", "> 6.52"],
  ["CN1CCN(Cc2ccc(-n3c4c(cc(-c5nc(-c6ccc(Cl)cc6)cs5)c3=O)C(=O)CC(C)(C)C4)cc2)CC1", "IDH1 R132C (Homo sapiens, UniProt O75874, R132C)", "4.70 to 5.30"],
  ["COc1ncc(C)cc1-n1c(C=C(C)C)c(C(=O)N2CCNCC2)cc(-c2ccn(-c3ccc(C(F)(F)F)cc3)n2)c1=O", "IDH1 R132C (Homo sapiens, UniProt O75874, R132C)", "5.30 to 6.00"],
  ["CN1CCN(Cc2cccc(-n3c4c(cc(-c5nc(-c6ccc(Cl)cc6)cs5)c3=O)C(=O)CCC4)c2)CC1", "IDH1 R132C (Homo sapiens, UniProt O75874, R132C)", "< 4.70"],
  ["CCc1cccc(CC)c1-n1c(C=C(C)C)c(C(=O)N2CCNCC2CC)cc(-c2nc(-c3ccc(Cl)cc3)cs2)c1=O (stereo not drawn)", "IDH1 R132C (Homo sapiens, UniProt O75874, R132C)", "> 6.52"],
  ["CCc1cccc(CC)c1-n1c(C2CCOCC2)c(C(=O)N2CCNCC2)cc(-c2nc(-c3ccc(Cl)cc3)cs2)c1=O", "IDH1 R132C (Homo sapiens, UniProt O75874, R132C)", "6.00 to 6.52"],
  ["Cc1ccccc1-n1c(C)c(C(=O)N2CCNCC2)cc(-c2nc(-c3ccc(Cl)cc3)cs2)c1=O", "IDH1 R132C (Homo sapiens, UniProt O75874, R132C)", "4.70 to 5.30"],
  ["CC(C)=Cc1c(C(=O)N2CCNCC2)cc(-c2nc(-c3ccc(Cl)cc3)cs2)c(=O)n1-c1ccccc1C", "IDH1 R132C (Homo sapiens, UniProt O75874, R132C)", "6.00 to 6.52"],
  ["CCc1ccc(N2CCN(C)CC2)c(CC)c1-n1c2c(cc(-c3nc(-c4ccc(Cl)cc4)cs3)c1=O)C(=O)CC(C)(C)C2", "IDH1 R132C (Homo sapiens, UniProt O75874, R132C)", "4.70 to 5.30"],
  ["CC(C)=Cc1c(C(=O)N2CCNCC2)cc(-c2nc(-c3ccc(Cl)cc3)cs2)c(=O)n1-c1ccccc1Cl", "IDH1 R132C (Homo sapiens, UniProt O75874, R132C)", "> 6.52"],
  ["O=C1CCCc2c1cc(-c1nc(-c3ccc(Cl)cc3)cs1)c(=O)n2-c1cccnc1", "IDH1 R132C (Homo sapiens, UniProt O75874, R132C)", "< 4.70"],
  ["CCc1cccc(CC)c1-n1c(CC(C)C)c(C(=O)N2CCNCC2)cc(-c2nc(-c3ccc(Cl)cc3)c(C(=O)N(C)C)s2)c1=O", "IDH1 R132C (Homo sapiens, UniProt O75874, R132C)", "5.30 to 6.00"],
  ["CCc1ccc(Cl)c(CC)c1-n1c2c(cc(-c3nc(-c4ccc(Cl)cc4)cs3)c1=O)C(=O)CC(C)(C)C2", "IDH1 R132C (Homo sapiens, UniProt O75874, R132C)", "> 6.52"],
  ["CCOc1ncc(Cl)cc1-n1c(C=C(C)C)c(C(=O)N2CCNCC2)cc(-c2nc(-c3ccc(C(F)F)nc3)cs2)c1=O", "IDH1 R132C (Homo sapiens, UniProt O75874, R132C)", "6.00 to 6.52"],
  ["COc1cccc(OC)c1-n1c2c(cc(-c3nc(-c4ccc(Cl)cc4)cs3)c1=O)C(=O)CCC2", "IDH1 R132C (Homo sapiens, UniProt O75874, R132C)", "5.30 to 6.00"],
  ["CCc1cccc(CC)c1-n1c(C=C(C)C)c(C(=O)N2CCNC3(CC3)C2)cc(-c2nc(-c3ccc(Cl)cc3)cs2)c1=O", "IDH1 R132C (Homo sapiens, UniProt O75874, R132C)", "> 6.52"],
  ["CCc1cccc(CC)c1-n1c(CC2CC2)c(C(=O)N2CCNCC2)cc(-c2nc(-c3ccc(Cl)nc3)cs2)c1=O", "IDH1 R132C (Homo sapiens, UniProt O75874, R132C)", "> 6.52"],
  ["CCOc1ncc(Cl)cc1-n1c(C=C(C)C)c(C(=O)N2CCNCC2)cc(-c2nc(-c3ccc(C(F)F)cn3)cs2)c1=O", "IDH1 R132C (Homo sapiens, UniProt O75874, R132C)", "5.30 to 6.00"],
  ["CCOc1cccc(OCC)c1-n1c2c(cc(-c3nc(-c4ccc(Cl)cc4)cs3)c1=O)C(=O)CCC2", "IDH1 R132C (Homo sapiens, UniProt O75874, R132C)", "6.00 to 6.52"],
  ["CCc1cccc(CC)c1-n1c(CC(C)C)c(C(=O)N2CCNCC2)cc(-c2nc(-c3ccc(C(F)F)cc3)c(C)s2)c1=O", "IDH1 R132C (Homo sapiens, UniProt O75874, R132C)", "> 6.52"],
  ["C=Cc1sc(-c2cc(C(=O)N3CCNCC3)c(CC(C)C)n(-c3c(CC)cccc3CC)c2=O)nc1-c1ccc(Cl)cc1", "IDH1 R132C (Homo sapiens, UniProt O75874, R132C)", "> 6.52"]
]}
